Experimental Readout: melting point

Check out these entries, answers already filled in.
Cc1c(Cc2ccccc2)nc(-c2ccccn2)[nH]c1=O    120 to 121 °C
Cc1ccccc1-c1nc(C(F)(F)F)cc(=O)[nH]1    155 to 156 °C
O=c1[nH]c(-c2ccccn2)nc(C(F)(F)F)c1Cc1ccccc1    173 to 174 °C

// each molecule listed below needs its melting point
1. Cc1c(C(F)(F)F)nc(-c2ccccc2OC(F)(F)F)[nH]c1=O
2. Cc1c(C(F)(F)F)nc(-c2cccnc2)[nH]c1=O
3. Cc1c(C(F)(F)F)nc(-c2ccccc2C(F)(F)F)[nH]c1=O
4. Cc1c(C(F)(F)F)nc(-c2ccncc2)[nH]c1=O

A:
167 to 168 °C
213 to 215 °C
168 to 170 °C
228 to 230 °C
